Hey, just so you know, these numbers are from ChEMBL document CHEMBL4834484.

Target: Bromodomain-containing protein 4 (Homo sapiens)
Assay: Displacement of SGRG-K(Ac)-GG-K(Ac)-GLG-K(Ac)-GGA-K(Ac)-RHRKVGG-K(Biotin) from Europium chelated human BRD4 bromodomain 1 (49 to 170 residues) measured after 2 hrs by TR-FRET assay
pIC50: −log10 of the molar value.
experimentalReadout: pIC50

Solved entries:
CC1COc2c(N3CCN(C)CC3)c(F)cc3c(=O)c(C(=O)N(C)CCCN4c5ccccc5CCc5ccccc54)cn1c23 (stereo not given) : 3.64
CSCC(=O)NCCCCCC(=O)N(C)CCCN1c2ccccc2CCc2ccccc21 : 3.01
CNC(=O)c1cn2c3c(c(N4CCN(C)CC4)c(F)cc3c1=O)OCC2C (stereo not given) : 2.95

P = CSCC(=O)N(C)CCCN1c2ccccc2CCc2ccccc21
Q = CC1COc2c(N3CCN(C)CC3)c(F)cc3c(=O)c(C(=O)NCCCCCC(=O)N(C)CCCN4c5ccccc5CCc5ccccc54)cn1c23 (stereo not given)
Q. Just tell me: smaller pIC50 value, P or Q ? Return value: the label identifying the chosen record.
A. P
